# credit: patent US8461145B2

# system: Human TRPA1 (Homo sapiens, UniProt O75762)
# Sequence (O75762 whole entry, looked up): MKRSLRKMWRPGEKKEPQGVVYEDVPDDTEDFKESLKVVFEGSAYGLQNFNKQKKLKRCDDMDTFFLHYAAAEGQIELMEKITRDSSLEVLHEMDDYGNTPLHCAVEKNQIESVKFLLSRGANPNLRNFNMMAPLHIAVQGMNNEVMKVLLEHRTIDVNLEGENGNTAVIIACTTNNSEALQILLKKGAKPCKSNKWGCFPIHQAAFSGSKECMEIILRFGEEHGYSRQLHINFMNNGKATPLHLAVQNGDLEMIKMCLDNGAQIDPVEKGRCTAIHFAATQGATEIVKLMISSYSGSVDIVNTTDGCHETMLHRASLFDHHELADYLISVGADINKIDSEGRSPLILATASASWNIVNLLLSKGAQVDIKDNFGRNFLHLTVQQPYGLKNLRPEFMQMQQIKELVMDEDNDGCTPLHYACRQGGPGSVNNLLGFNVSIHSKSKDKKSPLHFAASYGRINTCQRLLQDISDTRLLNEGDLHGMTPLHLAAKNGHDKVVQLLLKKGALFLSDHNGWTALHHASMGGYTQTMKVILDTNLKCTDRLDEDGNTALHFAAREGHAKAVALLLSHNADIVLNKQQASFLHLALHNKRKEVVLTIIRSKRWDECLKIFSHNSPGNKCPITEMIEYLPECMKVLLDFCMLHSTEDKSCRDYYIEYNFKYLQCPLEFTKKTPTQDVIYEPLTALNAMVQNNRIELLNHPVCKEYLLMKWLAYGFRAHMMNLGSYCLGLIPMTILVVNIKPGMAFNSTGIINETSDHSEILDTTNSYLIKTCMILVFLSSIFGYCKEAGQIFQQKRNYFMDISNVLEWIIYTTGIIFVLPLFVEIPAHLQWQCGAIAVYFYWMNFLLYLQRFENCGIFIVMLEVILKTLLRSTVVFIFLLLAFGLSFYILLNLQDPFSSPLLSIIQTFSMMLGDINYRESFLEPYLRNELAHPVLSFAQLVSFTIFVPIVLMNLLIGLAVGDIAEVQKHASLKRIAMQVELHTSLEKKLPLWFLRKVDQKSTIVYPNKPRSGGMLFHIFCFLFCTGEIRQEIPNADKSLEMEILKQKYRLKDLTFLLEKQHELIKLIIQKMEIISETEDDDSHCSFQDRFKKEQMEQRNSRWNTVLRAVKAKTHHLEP
# method: cell-based
pEC50 values for TRPA1 agonism below 9 gives criterion not met; pEC50 values for TRPA1 agonism at or above it gives criterion met.

Consider the following illustrative entries.
compound="CCCCOC(=O)c1cccc2c1Cc1ccccc1N=C2 [Compound 13]" category="criterion not met"
compound="COC(=O)c1cccc2c1Oc1ccccc1N=C2 [Compound 12]" category="criterion met"
compound="COC(=O)c1ccc2c(c1)Oc1ccccc1N=C2 [Compound 10]" category="criterion not met"
compound="COC(=O)c1cccc2c1Oc1ccccc1C=N2 [Compound 23]" category="criterion met"

Turning to the following compound.
Is the recorded value of pEC50 values for TRPA1 agonism equal to or greater than 9 for this compound? NC(=O)c1cccc2c1Oc1ccccc1N=C2 [Compound 21]
criterion met
